# target-entity: Ephrin type-B receptor 4 (Homo sapiens, UniProt P54760)
# Sequence (P54760 whole entry): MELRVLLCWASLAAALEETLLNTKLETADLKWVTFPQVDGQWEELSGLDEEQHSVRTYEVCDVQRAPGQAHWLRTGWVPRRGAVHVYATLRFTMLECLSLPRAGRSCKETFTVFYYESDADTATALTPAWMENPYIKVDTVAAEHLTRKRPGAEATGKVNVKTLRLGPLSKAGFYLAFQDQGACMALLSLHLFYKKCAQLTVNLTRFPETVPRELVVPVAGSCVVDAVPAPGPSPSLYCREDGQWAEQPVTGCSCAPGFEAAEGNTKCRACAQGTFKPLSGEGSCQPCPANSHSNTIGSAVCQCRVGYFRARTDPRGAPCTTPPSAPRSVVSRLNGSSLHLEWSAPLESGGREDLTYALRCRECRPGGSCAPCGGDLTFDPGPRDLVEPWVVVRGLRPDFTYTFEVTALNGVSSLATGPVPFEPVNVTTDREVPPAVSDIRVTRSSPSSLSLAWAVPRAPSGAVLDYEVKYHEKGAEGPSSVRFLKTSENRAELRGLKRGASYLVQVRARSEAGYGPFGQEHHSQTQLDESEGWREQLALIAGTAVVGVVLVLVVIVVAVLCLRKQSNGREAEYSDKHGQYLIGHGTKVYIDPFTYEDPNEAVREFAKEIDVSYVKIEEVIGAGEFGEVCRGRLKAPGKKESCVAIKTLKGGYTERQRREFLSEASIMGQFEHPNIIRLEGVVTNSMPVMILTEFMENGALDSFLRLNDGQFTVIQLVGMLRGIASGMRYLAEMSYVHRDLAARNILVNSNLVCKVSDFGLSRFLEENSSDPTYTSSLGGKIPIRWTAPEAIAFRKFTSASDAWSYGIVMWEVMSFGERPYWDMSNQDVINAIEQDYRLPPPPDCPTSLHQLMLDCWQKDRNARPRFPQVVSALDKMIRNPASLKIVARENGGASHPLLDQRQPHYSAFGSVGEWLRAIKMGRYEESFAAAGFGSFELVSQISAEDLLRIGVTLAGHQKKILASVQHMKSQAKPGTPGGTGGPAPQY
# test-details: Inhibition of EphB4 (unknown origin) by FRET-based enzymatic assay in presence of 30 uM ATP
# condition-label: read-out: IC50
readout: IC50 (µM)

{"compound-smiles": "Cc1ccc(-c2csc(NC(=O)CCCC(=O)O)c2C(N)=O)cc1C", "readout": "IC50", "uom": "µM", "result-number": 8}

Data credit: ChEMBL document CHEMBL3352758
